Quick reference for shrunken log2 fold change among some sequences
System: Escherichia coli TOP10
Experiment: shrunken log2 fold change of peptide-encoding DNA abundance (4.5 h post-induction vs induction); higher = less antimicrobial activity (less host growth inhibition)
Settings: time post-induction: 4.5 h; library: site-saturation at positions 5, 18, 19, 20
Reported metric: shrunken log2 fold change

1) RRIRGRPPRLPRPRPRPYLKPRP | -0.0688
2) RRIRIRPPRLPRPRPRPVYHPRP | -0.262
3) RRIRMRPPRLPRPRPRPTDEPRP | 0.116
4) RRIRYRPPRLPRPRPRPPNGPRP | 3.11
5) RRIRWRPPRLPRPRPRPIREPRP | 0.411
6) RRIRVRPPRLPRPRPRPACSPRP | -0.0142
7) RRIRLRPPRLPRPRPRPPPPPRP | 1.55
8) RRIRLRPPRLPRPRPRPEPKPRP | 0.238
9) RRIRPRPPRLPRPRPRPDFRPRP | -0.184
10) RRIRVRPPRLPRPRPRPKAHPRP | -0.00647
11) RRIRKRPPRLPRPRPRPNVLPRP | -0.112
12) RRIRLRPPRLPRPRPRPSRFPRP | -0.211
13) RRIRVRPPRLPRPRPRPWHTPRP | -0.33
14) RRIRDRPPRLPRPRPRPLWLPRP | 0.399
15) RRIRGRPPRLPRPRPRPEQSPRP | 1.05
16) RRIRARPPRLPRPRPRPDVQPRP | 0.474
17) RRIRWRPPRLPRPRPRPCNMPRP | -0.179
18) RRIRKRPPRLPRPRPRPERCPRP | 0.559
19) RRIRARPPRLPRPRPRPMPTPRP | 0.866
20) RRIRARPPRLPRPRPRPQSKPRP | 0.0474
21) RRIRIRPPRLPRPRPRPYVEPRP | -0.0566
22) RRIRYRPPRLPRPRPRPGIHPRP | -0.467
23) RRIRDRPPRLPRPRPRPHRTPRP | -0.0884
24) RRIRERPPRLPRPRPRPCHNPRP | -0.0168
25) RRIRWRPPRLPRPRPRPLHRPRP | 0.0218
26) RRIRLRPPRLPRPRPRPDSNPRP | -0.0277
27) RRIRHRPPRLPRPRPRPRCFPRP | -0.143
28) RRIRIRPPRLPRPRPRPNYGPRP | 0.0426
29) RRIRWRPPRLPRPRPRPRQAPRP | 0.475
30) RRIRCRPPRLPRPRPRPYFVPRP | -1.13
31) RRIRYRPPRLPRPRPRPKPTPRP | 0.278
32) RRIRWRPPRLPRPRPRPYEHPRP | -0.12
33) RRIRTRPPRLPRPRPRPMQRPRP | -0.0122
34) RRIRTRPPRLPRPRPRPVEWPRP | 0.168
35) RRIRDRPPRLPRPRPRPPGHPRP | 0.0994
36) RRIRWRPPRLPRPRPRPDTKPRP | 0.00587
37) RRIRVRPPRLPRPRPRPLFSPRP | -0.261
38) RRIRSRPPRLPRPRPRPRVMPRP | -0.171
39) RRIRRRPPRLPRPRPRPNGWPRP | 0.282
40) RRIRLRPPRLPRPRPRPSMSPRP | 0.221
41) RRIRQRPPRLPRPRPRPTNDPRP | -0.296
42) RRIRSRPPRLPRPRPRPIGLPRP | 0.074
43) RRIRWRPPRLPRPRPRPMMSPRP | 0.19
44) RRIRHRPPRLPRPRPRPCIQPRP | -0.00018
45) RRIRERPPRLPRPRPRPEGTPRP | -0.0267
46) RRIRMRPPRLPRPRPRPKPHPRP | 1.19
47) RRIRWRPPRLPRPRPRPFKGPRP | -0.0135
48) RRIRPRPPRLPRPRPRPYWMPRP | -1.06
49) RRIRCRPPRLPRPRPRPKTGPRP | -0.0569
50) RRIRKRPPRLPRPRPRPWTPPRP | 0.246
51) RRIRFRPPRLPRPRPRPYMMPRP | -0.34
52) RRIRSRPPRLPRPRPRPITEPRP | 0.0453
53) RRIRVRPPRLPRPRPRPFIMPRP | -0.084
54) RRIRLRPPRLPRPRPRPSDTPRP | -0.142
55) RRIRARPPRLPRPRPRPCIGPRP | 0.0942
56) RRIRNRPPRLPRPRPRPENNPRP | -0.106
57) RRIRFRPPRLPRPRPRPDDFPRP | 0.0834
58) RRIRHRPPRLPRPRPRPQYCPRP | -0.00186
59) RRIRGRPPRLPRPRPRPMHMPRP | 0.347
60) RRIRIRPPRLPRPRPRPLIKPRP | -0.756
61) RRIRNRPPRLPRPRPRPHLAPRP | 0.131

---

Tested on: Escherichia coli TOP10
Assay: shrunken log2 fold change of peptide-encoding DNA abundance (4.5 h post-induction vs induction); higher = less antimicrobial activity (less host growth inhibition)
Details: time post-induction: 4.5 h; library: site-saturation at positions 5, 18, 19, 20
Class assignment keyed on shrunken log2 fold change, ranges bottom range: < -0.05; center range: ≥ -0.05 and < 0.09; top range: ≥ 0.09

1) RRIRHRPPRLPRPRPRPHQGPRP | center range
2) RRIRIRPPRLPRPRPRPIRWPRP | center range
3) RRIRMRPPRLPRPRPRPCLLPRP | center range
4) RRIRARPPRLPRPRPRPGMQPRP | top range
5) RRIRQRPPRLPRPRPRPPSTPRP | top range
6) RRIRKRPPRLPRPRPRPHCRPRP | center range
7) RRIRERPPRLPRPRPRPIEHPRP | center range
8) RRIRLRPPRLPRPRPRPFVSPRP | bottom range
9) RRIRHRPPRLPRPRPRPPEYPRP | center range
10) RRIRARPPRLPRPRPRPLMPPRP | top range
11) RRIRIRPPRLPRPRPRPSHVPRP | bottom range
12) RRIRERPPRLPRPRPRPCWNPRP | bottom range
13) RRIRLRPPRLPRPRPRPQSGPRP | bottom range
14) RRIRIRPPRLPRPRPRPRKRPRP | top range
15) RRIRVRPPRLPRPRPRPTANPRP | top range
16) RRIRVRPPRLPRPRPRPFGWPRP | top range
17) RRIRHRPPRLPRPRPRPTRAPRP | top range
18) RRIRDRPPRLPRPRPRPSYIPRP | bottom range
19) RRIRERPPRLPRPRPRPAHWPRP | top range
20) RRIRQRPPRLPRPRPRPVAMPRP | center range
21) RRIRTRPPRLPRPRPRPGAIPRP | bottom range
22) RRIRKRPPRLPRPRPRPQWMPRP | bottom range
23) RRIRCRPPRLPRPRPRPPDYPRP | center range
24) RRIRGRPPRLPRPRPRPYDHPRP | bottom range
25) RRIRGRPPRLPRPRPRPVAGPRP | top range

---

System: Escherichia coli TOP10;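 note: peptides expressed intracellularly from a pBAD plasmid library in pooled LB shake-flask culture, induced with 0.3% L-arabinose, DNA abundance read by NGS, three biological replicates, DESeq2 with apeglm shrinkage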
Assay: shrunken log2 fold change of peptide-encoding DNA abundance (4.5 h post-induction vs induction); higher = less antimicrobial activity (less host growth inhibition)
Settings: time post-induction: 4.5 h; library: site-saturation at positions 5, 18, 19, 20
Rule: shrunken log2 fold change under 0.1 gives Not met, otherwise Met.

1. RRIRDRPPRLPRPRPRPDISPRP | Not met
2. RRIRVRPPRLPRPRPRPHDFPRP | Not met
3. RRIRTRPPRLPRPRPRPSDDPRP | Not met
4. RRIRCRPPRLPRPRPRPWCVPRP | Not met
5. RRIRDRPPRLPRPRPRPDHTPRP | Not met
6. RRIRARPPRLPRPRPRPCPAPRP | Met
7. RRIRYRPPRLPRPRPRPHMVPRP | Not met
8. RRIRHRPPRLPRPRPRPMGNPRP | Not met
9. RRIRARPPRLPRPRPRPFPPPRP | Met
10. RRIRFRPPRLPRPRPRPSWPPRP | Not met
11. RRIRCRPPRLPRPRPRPCFNPRP | Met
12. RRIRSRPPRLPRPRPRPEAQPRP | Met
13. RRIRSRPPRLPRPRPRPLMWPRP | Met
14. RRIRARPPRLPRPRPRPSHTPRP | Met
15. RRIRGRPPRLPRPRPRPSEDPRP | Met
16. RRIRGRPPRLPRPRPRPQFHPRP | Not met
17. RRIRWRPPRLPRPRPRPTKMPRP | Met
18. RRIRVRPPRLPRPRPRPCMRPRP | Met
19. RRIRHRPPRLPRPRPRPWGGPRP | Met
20. RRIRHRPPRLPRPRPRPMSHPRP | Not met
21. RRIRDRPPRLPRPRPRPADRPRP | Not met
22. RRIRSRPPRLPRPRPRPFWLPRP | Met
23. RRIRTRPPRLPRPRPRPGTYPRP | Not met
24. RRIRDRPPRLPRPRPRPHREPRP | Not met
25. RRIRTRPPRLPRPRPRPAERPRP | Not met
26. RRIRFRPPRLPRPRPRPPSHPRP | Met
27. RRIRQRPPRLPRPRPRPGPNPRP | Not met
28. RRIRGRPPRLPRPRPRPEWIPRP | Met
29. RRIRWRPPRLPRPRPRPATLPRP | Not met
30. RRIRNRPPRLPRPRPRPPSPPRP | Met
31. RRIRNRPPRLPRPRPRPEIVPRP | Met
32. RRIRYRPPRLPRPRPRPATTPRP | Not met
33. RRIRQRPPRLPRPRPRPYWFPRP | Not met
34. RRIRMRPPRLPRPRPRPKFHPRP | Not met
35. RRIRNRPPRLPRPRPRPGGFPRP | Met
36. RRIRYRPPRLPRPRPRPDFYPRP | Not met
37. RRIRTRPPRLPRPRPRPCYPPRP | Not met
38. RRIRVRPPRLPRPRPRPKESPRP | Not met
39. RRIRNRPPRLPRPRPRPITAPRP | Not met
40. RRIRKRPPRLPRPRPRPGENPRP | Met
41. RRIRLRPPRLPRPRPRPSTTPRP | Not met
42. RRIRHRPPRLPRPRPRPEYYPRP | Not met
43. RRIRMRPPRLPRPRPRPKETPRP | Met
44. RRIRSRPPRLPRPRPRPLGRPRP | Met
45. RRIRGRPPRLPRPRPRPDQHPRP | Met
46. RRIRPRPPRLPRPRPRPMDVPRP | Not met
47. RRIRCRPPRLPRPRPRPDHAPRP | Not met
48. RRIRIRPPRLPRPRPRPLIPPRP | Not met
49. RRIRERPPRLPRPRPRPQQPPRP | Met
50. RRIRARPPRLPRPRPRPDYHPRP | Not met
51. RRIRHRPPRLPRPRPRPYFPPRP | Not met
52. RRIRYRPPRLPRPRPRPVFRPRP | Not met
53. RRIRGRPPRLPRPRPRPKNPPRP | Met
54. RRIRKRPPRLPRPRPRPPCKPRP | Not met
55. RRIRFRPPRLPRPRPRPEFDPRP | Not met
56. RRIRWRPPRLPRPRPRPHPEPRP | Met
57. RRIRTRPPRLPRPRPRPRHTPRP | Not met
58. RRIRRRPPRLPRPRPRPLCPPRP | Met
